# assayInfo: Half life in human
# Type: ADME, organism-based
# assaySetup: in vivo
measuredQuantity: half-life (h)

1. Cc1ccc(-n2nccn2)c(C(=O)N2CCN(c3nc4cc(Cl)ccc4o3)CC[C@H]2C)c1 [SUVOREXANT]    12

###

Listed compounds paired with reported Activity
# tgt: Orexin receptor type 2 (Homo sapiens) (UniProt O43614)
# Sequence (O43614 whole entry): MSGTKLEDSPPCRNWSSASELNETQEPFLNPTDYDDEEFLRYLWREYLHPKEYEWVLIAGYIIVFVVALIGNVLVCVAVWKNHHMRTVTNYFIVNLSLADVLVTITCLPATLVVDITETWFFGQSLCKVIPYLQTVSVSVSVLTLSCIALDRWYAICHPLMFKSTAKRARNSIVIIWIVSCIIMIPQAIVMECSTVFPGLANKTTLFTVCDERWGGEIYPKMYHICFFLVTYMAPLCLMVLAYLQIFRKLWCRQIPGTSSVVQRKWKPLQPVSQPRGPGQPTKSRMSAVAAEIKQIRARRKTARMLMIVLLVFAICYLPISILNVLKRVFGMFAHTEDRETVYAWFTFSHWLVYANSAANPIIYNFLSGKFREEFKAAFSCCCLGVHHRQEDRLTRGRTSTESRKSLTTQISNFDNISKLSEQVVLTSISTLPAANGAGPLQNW
# assayInfo: Agonist activity at orexin-2 receptor (unknown origin) assessed as increase in intracellular calcium level at 50 uM measured over 20 secs by apoaequorin expressing cell-based assay relative to orexin
# Assay type: functional
measuredQuantity: Activity (%)

1. Nc1ccccc1OC1=C(Cl)C(=O)c2ccccc2C1=O    88
2. Nc1cc(Br)ccc1OC1=C(Cl)C(=O)c2ccccc2C1=O    84
3. Cc1cccc(OC2=C(Cl)C(=O)c3ccccc3C2=O)c1N    84
4. COc1ccc(OC2=C(Cl)C(=O)c3ccccc3C2=O)c(N)c1    80
5. Cc1ccc(OC2=C(Cl)C(=O)c3ccccc3C2=O)c(N)c1    85
6. Nc1cc(C(F)(F)F)ccc1OC1=C(Cl)C(=O)c2ccccc2C1=O    92
7. Cc1ccc(N)c(OC2=C(Cl)C(=O)c3ccccc3C2=O)c1    83
8. Nc1cc(Cl)ccc1OC1=C(Cl)C(=O)c2ccccc2C1=O    87

###

# tgt: Orexin/Hypocretin receptor type 1 (Homo sapiens)
# Sequence (O43613 whole entry): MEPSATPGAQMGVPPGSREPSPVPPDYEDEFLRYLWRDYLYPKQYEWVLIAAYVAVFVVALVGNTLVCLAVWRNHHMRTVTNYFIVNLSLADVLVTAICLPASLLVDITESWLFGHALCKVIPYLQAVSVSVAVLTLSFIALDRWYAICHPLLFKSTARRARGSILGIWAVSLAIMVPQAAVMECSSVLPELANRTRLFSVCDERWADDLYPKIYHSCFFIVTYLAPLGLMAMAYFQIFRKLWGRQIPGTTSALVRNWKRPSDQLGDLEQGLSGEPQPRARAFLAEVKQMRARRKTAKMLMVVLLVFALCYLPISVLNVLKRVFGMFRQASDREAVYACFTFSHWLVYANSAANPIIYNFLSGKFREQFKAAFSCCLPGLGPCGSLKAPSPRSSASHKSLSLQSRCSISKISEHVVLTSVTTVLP
# assayInfo: Antagonist activity at orexin-1 receptor (unknown origin)
pKi: −log10 of the molar value.
measuredQuantity: pKi

1) Cc1nc(C(=O)N2CCCC[C@H]2CCOc2ccc(F)cc2)c(-c2ccccc2)s1    10.22
2) Cc1nc(C(=O)N2CCC[C@@H](COc3ccc(F)cc3)C2)c(-c2ccccc2)s1    7.64
3) CCN(CCCOc1ccc(F)cc1)C(=O)c1nc(C)sc1-c1ccccc1    8.10
